Cited source for all entries: ChEMBL document CHEMBL3526126

Assay: Cmax in Wistar Hannover rat at 2000 umol/kg, po qd measured on day 1
Conditions: in vivo
metric.name: Cmax

> print(dat)
                       molecule  result
1  NS(=O)(=O)c1ccccc1S(N)(=O)=O   66 µM

###

Experiment: AUC (0 to 24 hrs) in Sprague-Dawley rat at 2000 umol/kg, po qd administered for 7 days measured on day 7
Type: ADME, organism-based
Design: time < 24 hr, dose 2000 umol/kg, route oral
Conditions: plasma
metric.name: AUC at 24 h (µM·h)

> print(dat)
                       molecule  number
1  NS(=O)(=O)c1ccccc1S(N)(=O)=O    1250

###

Assay: Cmax in male Wistar Hannover rat at 1000 umol/kg, po qd measured on day 1
Details: in vivo
metric.name: Cmax

> print(dat)
                                   molecule  metric.name  result
1  NS(=O)(=O)c1ccccc1S(=O)(=O)NC(=O)c1ccc(C#Cc2ccccc2)cc1         Cmax   46 µM

###

Assay: AUC (0 to 24 hrs) in Sprague-Dawley rat at 900 umol/kg, po qd administered for 14 days measured on day 14
Assay type: ADME, organism-based
Parameters: dose 900 umol/kg, time < 24 hr, route oral
Conditions: plasma
metric.name: AUC at 24 h (µM·h)

> print(dat)
                                   molecule  metric.name  measurement.units  number
1  Cc1cc(C(=O)NS(=O)(=O)c2ccccc2S(N)(=O)=O)ccc1C#CC1CCC1  AUC at 24 h               µM·h    5000

###

Assay: Cmax in Sprague-Dawley rat at 435 umol/kg, po qd administered for 14 days measured on day 14
Assay type: ADME, organism-based
Parameters: dose 435 umol/kg, route oral
Settings: in vivo
metric.name: Cmax (µM)

> print(dat)
                                   molecule  metric.name  number
1  Cc1cc(C(=O)NS(=O)(=O)c2ccccc2S(N)(=O)=O)ccc1C#CC1CCC1         Cmax     415

###

Target: Prostaglandin E synthase (Homo sapiens)
Sequence (O14684 whole entry): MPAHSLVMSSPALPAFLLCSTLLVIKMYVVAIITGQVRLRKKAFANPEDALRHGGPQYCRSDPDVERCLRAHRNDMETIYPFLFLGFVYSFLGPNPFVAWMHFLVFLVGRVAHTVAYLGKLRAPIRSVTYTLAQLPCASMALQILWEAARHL
Experiment: Inhibition of human mPGES-1 by whole blood assay
metric.name: IC50

> print(dat)
                                   molecule                          measured.target     result
1  CC(C)C#Cc1ccc(C(=O)NS(=O)(=O)c2ccccc2S(N)(=O)=O)cc1OCCC(F)(F)F  Prostaglandin E synthase (Homo sapiens)  > 2000 nM

###

Examples of compounds with documented AUC at 24 h follow.
Assay: AUC (0 to 24 hrs) in Sprague-Dawley rat at 500 umol/kg, po qd administered for 7 days measured on day 7
Type: ADME, organism-based
Design: dose 500 umol/kg, time < 24 hr, route oral
Conditions: plasma
metric.name: AUC at 24 h

> print(dat)
                                   molecule     result
1  CC(C)C#Cc1ccc(C(=O)NS(=O)(=O)c2ccccc2S(N)(=O)=O)cc1OCCC(F)(F)F  3010 µM·h
2              NS(=O)(=O)c1ccccc1S(N)(=O)=O  1300 µM·h

###

Experiment: AUC (0 to 24 hrs) in female Wistar Hannover rat at 500 umol/kg, po qd measured on day 1
Details: plasma
metric.name: AUC(0-t) at 24 h (µM·h)

> print(dat)
                                   molecule       metric.name  measurement.units  number
1  NS(=O)(=O)c1ccccc1S(=O)(=O)NC(=O)c1ccc(C#Cc2ccccc2)cc1  AUC(0-t) at 24 h               µM·h     450

###

Examples of compounds with documented AUC(0-t) at 24 h follow.
Experiment: AUC (0 to 24 hrs) in Wistar Hannover rat at 500 umol/kg, po qd measured on day 1
Details: plasma
metric.name: AUC(0-t) at 24 h (µM·h)

> print(dat)
                                   molecule       metric.name  measurement.units  number
1              NS(=O)(=O)c1ccccc1S(N)(=O)=O  AUC(0-t) at 24 h               µM·h    1080
2  CC(C)C#Cc1ccc(C(=O)NS(=O)(=O)c2ccccc2S(N)(=O)=O)cc1OCCC(F)(F)F  AUC(0-t) at 24 h               µM·h    3410

###

Assay: Cmax in Wistar Hannover rat at 70 umol/kg, po qd measured on day 1
Details: in vivo
metric.name: Cmax (µM)

> print(dat)
                                   molecule  metric.name  number
1  COc1cc(C(=O)NS(=O)(=O)c2ccccc2S(N)(=O)=O)ccc1C#CC1CC1         Cmax      50

###

Test: AUC (0 to 24 hrs) in Sprague-Dawley rat at 170 umol/kg, po qd administered for 7 days measured on day 7
Format: ADME, organism-based
Set-up: time < 24 hr, dose 170 umol/kg, route oral
Conditions: plasma
metric.name: AUC at 24 h

> print(dat)
                                   molecule     result
1  CC(C)C#Cc1ccc(C(=O)NS(=O)(=O)c2ccccc2S(N)(=O)=O)cc1OCCC(F)(F)F  1600 µM·h
